Biological target: monkey DLL3 on CHO-K1-cyno DLL3 cells (cynomolgus monkey)
Sequence (chain, as listed by the source limits assumed): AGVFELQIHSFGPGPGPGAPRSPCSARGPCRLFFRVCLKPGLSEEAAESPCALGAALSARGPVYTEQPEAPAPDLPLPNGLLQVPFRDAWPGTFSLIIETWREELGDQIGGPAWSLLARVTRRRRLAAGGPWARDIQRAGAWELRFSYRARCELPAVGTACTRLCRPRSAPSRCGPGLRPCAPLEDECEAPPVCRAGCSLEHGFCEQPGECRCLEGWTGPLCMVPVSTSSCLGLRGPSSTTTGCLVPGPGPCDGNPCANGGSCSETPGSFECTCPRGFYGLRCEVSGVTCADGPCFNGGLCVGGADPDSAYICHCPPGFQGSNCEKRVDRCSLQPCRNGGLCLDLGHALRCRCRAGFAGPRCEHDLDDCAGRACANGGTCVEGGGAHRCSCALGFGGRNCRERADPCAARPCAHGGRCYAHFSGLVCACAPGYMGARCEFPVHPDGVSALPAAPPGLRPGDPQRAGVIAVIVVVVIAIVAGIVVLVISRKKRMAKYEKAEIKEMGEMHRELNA
Experiment: FACS, CHO-K1-cyno DLL3 cells, 0.0064 nM antibody
MEASURED ENDPOINT: MFI (MFI)
Only the number, expressed in MFI, is required.

BINDER	MFI, MFI
Hab008L1H5-hFc (scFv, part only; not given: VL-VH linker and human IgG1 Fc, V domains shown, not shown: another chain or arm of the molecule; a dimerising Fc or GST; small tags and cut ends) VL: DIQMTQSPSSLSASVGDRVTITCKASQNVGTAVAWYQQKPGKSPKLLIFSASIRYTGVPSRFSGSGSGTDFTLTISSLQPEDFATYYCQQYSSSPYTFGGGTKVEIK VH: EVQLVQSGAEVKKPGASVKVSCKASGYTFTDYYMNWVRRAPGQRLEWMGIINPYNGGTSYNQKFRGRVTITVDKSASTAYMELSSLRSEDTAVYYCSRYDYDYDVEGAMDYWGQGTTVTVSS	159
Hab006VL4VH2-hFc (scFv, part only; not given: scFv linker and human IgG1 Fc, V domains shown, not shown: another chain or arm of the molecule; a dimerising Fc or GST; small tags and cut ends) VL: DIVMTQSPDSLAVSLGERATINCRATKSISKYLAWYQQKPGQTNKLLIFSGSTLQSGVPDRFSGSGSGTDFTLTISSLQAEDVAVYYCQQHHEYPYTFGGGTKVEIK VH: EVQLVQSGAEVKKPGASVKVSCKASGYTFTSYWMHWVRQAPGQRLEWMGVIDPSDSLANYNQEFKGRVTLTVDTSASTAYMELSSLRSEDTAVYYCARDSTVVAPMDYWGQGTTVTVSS	494
Hab015VL4VH1a-hFc (scFv, part only; not given: scFv linker and human IgG1 Fc, V domains shown, not shown: another chain or arm of the molecule; a dimerising Fc or GST; small tags and cut ends) VL: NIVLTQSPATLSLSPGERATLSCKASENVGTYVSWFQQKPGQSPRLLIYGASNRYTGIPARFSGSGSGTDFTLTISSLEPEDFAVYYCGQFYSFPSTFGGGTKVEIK VH: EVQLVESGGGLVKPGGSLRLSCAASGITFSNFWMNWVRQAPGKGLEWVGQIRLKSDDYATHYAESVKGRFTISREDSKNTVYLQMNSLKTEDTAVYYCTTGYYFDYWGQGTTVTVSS	168

**Q:** Given the binder Hab006VL4VH1-hFc (scFv, part only; not given: scFv linker and human IgG1 Fc, V domains shown, not shown: another chain or arm of the molecule; a dimerising Fc or GST; small tags and cut ends) VL: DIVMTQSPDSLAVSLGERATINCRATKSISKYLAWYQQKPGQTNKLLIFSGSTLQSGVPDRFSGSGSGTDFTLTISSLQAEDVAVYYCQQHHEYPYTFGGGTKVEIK VH: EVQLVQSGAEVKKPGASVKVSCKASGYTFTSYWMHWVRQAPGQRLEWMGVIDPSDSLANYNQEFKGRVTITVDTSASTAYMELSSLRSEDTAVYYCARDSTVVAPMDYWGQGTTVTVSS , write its reported MFI.
**A:** 424

**Q:** Given the binder Hab009VL2aVH1-hFc (scFv, part only; not given: VL-VH linker and human IgG1 Fc, V domains shown, not shown: another chain or arm of the molecule; a dimerising Fc or GST; small tags and cut ends) VL: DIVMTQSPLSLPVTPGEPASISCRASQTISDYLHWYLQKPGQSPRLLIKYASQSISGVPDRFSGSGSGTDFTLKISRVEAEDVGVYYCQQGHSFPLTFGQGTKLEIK VH: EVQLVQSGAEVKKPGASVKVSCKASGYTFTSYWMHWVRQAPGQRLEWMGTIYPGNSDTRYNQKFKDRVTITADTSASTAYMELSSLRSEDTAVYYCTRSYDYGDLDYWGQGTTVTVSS , write its reported MFI.
**A:** 3160

**Q:** Given the binder Hab014VL3VH1-hFc (scFv, part only; not given: VL-VH linker and human IgG1 Fc, V domains shown, not shown: another chain or arm of the molecule; a dimerising Fc or GST; small tags and cut ends) VL: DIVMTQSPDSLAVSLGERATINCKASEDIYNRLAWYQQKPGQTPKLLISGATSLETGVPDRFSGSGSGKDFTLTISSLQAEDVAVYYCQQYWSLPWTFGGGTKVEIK VH: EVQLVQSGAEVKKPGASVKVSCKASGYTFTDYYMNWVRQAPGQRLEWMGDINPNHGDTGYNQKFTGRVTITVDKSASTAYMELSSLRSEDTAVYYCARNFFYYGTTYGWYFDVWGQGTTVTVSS , write its reported MFI.
**A:** 245

**Q:** Given the binder Hab008L1H2a-hFc (scFv, part only; not given: VL-VH linker and human IgG1 Fc, V domains shown, not shown: another chain or arm of the molecule; a dimerising Fc or GST; small tags and cut ends) VL: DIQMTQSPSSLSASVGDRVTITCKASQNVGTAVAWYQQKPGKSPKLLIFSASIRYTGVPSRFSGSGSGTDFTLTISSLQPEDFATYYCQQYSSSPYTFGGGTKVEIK VH: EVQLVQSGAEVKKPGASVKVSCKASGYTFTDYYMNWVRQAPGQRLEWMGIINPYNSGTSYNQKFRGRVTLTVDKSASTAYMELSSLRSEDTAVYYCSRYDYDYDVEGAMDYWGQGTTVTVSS , write its reported MFI.
**A:** 231

**Q:** Given the binder Hab015VL4VH6a-hFc (scFv, part only; not given: scFv linker and human IgG1 Fc, V domains shown, not shown: another chain or arm of the molecule; a dimerising Fc or GST; small tags and cut ends) VL: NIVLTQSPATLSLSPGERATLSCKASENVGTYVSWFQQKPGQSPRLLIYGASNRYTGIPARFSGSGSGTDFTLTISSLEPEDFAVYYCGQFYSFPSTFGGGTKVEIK VH: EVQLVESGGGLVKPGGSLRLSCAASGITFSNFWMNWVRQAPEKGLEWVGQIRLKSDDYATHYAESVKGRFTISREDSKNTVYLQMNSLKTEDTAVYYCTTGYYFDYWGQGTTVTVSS , write its reported MFI.
**A:** 153

**Q:** Given the binder Hab009VL3aVH1-hFc (scFv, part only; not given: VL-VH linker and human IgG1 Fc, V domains shown, not shown: another chain or arm of the molecule; a dimerising Fc or GST; small tags and cut ends) VL: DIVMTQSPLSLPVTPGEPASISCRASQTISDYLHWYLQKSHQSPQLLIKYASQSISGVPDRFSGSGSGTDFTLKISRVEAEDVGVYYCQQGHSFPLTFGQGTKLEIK VH: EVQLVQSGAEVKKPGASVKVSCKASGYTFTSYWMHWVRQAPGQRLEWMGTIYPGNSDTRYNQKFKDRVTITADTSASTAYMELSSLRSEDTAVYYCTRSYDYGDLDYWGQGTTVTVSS , write its reported MFI.
**A:** 3760

**Q:** Given the binder Hab015VL5VH1b-hFc (scFv, part only; not given: VL-VH linker and human IgG1 Fc, V domains shown, not shown: another chain or arm of the molecule; a dimerising Fc or GST; small tags and cut ends) VL: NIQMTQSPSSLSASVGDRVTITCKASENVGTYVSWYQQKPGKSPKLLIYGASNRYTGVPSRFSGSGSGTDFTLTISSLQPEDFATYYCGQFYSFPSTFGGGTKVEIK VH: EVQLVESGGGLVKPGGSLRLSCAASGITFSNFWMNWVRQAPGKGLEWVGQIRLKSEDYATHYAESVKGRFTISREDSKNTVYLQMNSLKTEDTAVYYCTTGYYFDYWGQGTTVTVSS , write its reported MFI.
**A:** 195
